B1: PhoQ; a variant is named by its letters at X, in order, P23837 (parent)
chain: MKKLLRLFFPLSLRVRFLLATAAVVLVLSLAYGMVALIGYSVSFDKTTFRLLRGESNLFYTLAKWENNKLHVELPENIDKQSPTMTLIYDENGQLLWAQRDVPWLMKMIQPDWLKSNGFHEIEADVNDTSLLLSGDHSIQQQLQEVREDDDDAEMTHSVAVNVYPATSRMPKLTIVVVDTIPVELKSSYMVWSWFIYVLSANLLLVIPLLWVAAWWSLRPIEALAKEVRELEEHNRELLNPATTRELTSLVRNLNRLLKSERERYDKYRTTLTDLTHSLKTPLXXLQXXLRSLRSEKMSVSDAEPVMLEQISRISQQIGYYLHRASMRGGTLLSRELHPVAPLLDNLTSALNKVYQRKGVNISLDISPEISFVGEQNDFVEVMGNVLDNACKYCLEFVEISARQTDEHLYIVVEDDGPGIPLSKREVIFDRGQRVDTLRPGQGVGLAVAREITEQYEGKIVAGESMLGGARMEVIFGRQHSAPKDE

Variants of: B1
assay: enrichment ratio after two sorts for PhoP signalling (ratio (wild type AVST 3.29)); higher = more functional
condition_notes: with PhoP (E. coli)
Over roughly 140,000 sequences, “enrichment ratio after two sorts for PhoP signalling” has its median near 0; the highest 2% begin near 11. For the sample, the highest values were picked, then their nearest neighbours and some sequences at random.
measurement_name: enrichment ratio

Input: Quickly give me recorded enrichment ratio for SQMW
Output: ≤ 0.25

Input: Quickly give me recorded enrichment ratio for WSHN
Output: ≤ 0.25

Input: Quickly give me recorded enrichment ratio for KDLN
Output: ≤ 0.25
